Target: recombinant IL4I1 (Homo sapiens (Human))
Assay: IL4I1 Enzymatic Assay (Amplex Red/HRP coupled H2O2 detection)
Conditions: 1 nM IL4I1, 1 mM each Phe/Tyr/Trp, four-hour pre-incubation, 120 minutes reaction, top compound concentration of 10000 nM
pEC50: −log10 of the molar value.
READOUT_TYPE: pEC50

Below, 5 compounds whose answers are already recorded.
# COMPOUND, pEC50
rows = [
    ("CC(O)C(C#N)c1ccc(Cc2cc3ccccc3[nH]c2=O)cc1 (single isomer, unassigned) [Example 102C]", 7.93),
    ("O=c1[nH]c2ccccc2cc1Cc1ccc([C@@H]2CCNC2)cc1 [65A]", 8.15),
    ("Cn1c(=O)c(Cc2cccc(OC(F)(F)F)c2)cc2ccccc21", 8.14),
    ("CC1(N)CN(c2ccc(Cc3cc4ccccc4[nH]c3=O)cc2)C1", 7.70),
    ("CC(=O)NCc1ccc(Cc2cc3ccccc3[nH]c2=O)cn1", 7.86),
]

P: N#CC1(c2ccc(Cc3cc4ccccc4[nH]c3=O)cc2)COC1
Q: C[C@H]1Oc2ccc(Cc3cc4ccccc4[nH]c3=O)cc2NC1=O (single isomer, unassigned) [Example 142A]
R: C[C@]1(c2ccc(Cc3cc4ccccc4[nH]c3=O)cc2)CCC(=O)N1 (single isomer, unassigned) [Example 183A]
S: O=c1[nH]c2ccncc2cc1Cc1ccc(C2(O)CCC2)cc1
(Q) Sort (4 compounds) by pEC50: min first. When ranking, write the labels in the order the request describes.
(A) R, S, Q, P

1: O=c1[nH]c2ccccc2cc1Cc1nnc(-c2cn3ccsc3n2)o1
2: O=C1NCCc2cc(Cc3cc4ccccc4[nH]c3=O)ccc21
3: N#Cc1c[nH]c2ccc(Cc3cc4ccccc4[nH]c3=O)nc12
4: N#Cc1ccc2[nH]c(=O)c(Cc3ccccc3)cc2c1
5: O=C1CC(Cc2nnc(Cc3cc4ccccc4[nH]c3=O)o2)CC(=O)N1
(Q) Sort by pEC50, descending. # list labels per requested ordering
(A) 3, 1, 2, 5, 4
(3: 8.70, 1: 8.24, 2: 7.97, 5: 6.86, 4: 5.00)

A: O=c1[nH]c2ccccc2cc1Cc1nnc(-c2cc3c(s2)CCC3)o1
B: O=C1OCCN1c1ccc(Cc2cc3ccccc3[nH]c2=O)cn1
(Q) Field: lower recorded pEC50 (choose A or B ) Indicate which entry you chose by stating its label.
(A) A

* * *

Molecular target: recombinant IL4I1 (Homo sapiens (Human), UniProt Q96RQ9)
Sequence (Q96RQ9 22-567): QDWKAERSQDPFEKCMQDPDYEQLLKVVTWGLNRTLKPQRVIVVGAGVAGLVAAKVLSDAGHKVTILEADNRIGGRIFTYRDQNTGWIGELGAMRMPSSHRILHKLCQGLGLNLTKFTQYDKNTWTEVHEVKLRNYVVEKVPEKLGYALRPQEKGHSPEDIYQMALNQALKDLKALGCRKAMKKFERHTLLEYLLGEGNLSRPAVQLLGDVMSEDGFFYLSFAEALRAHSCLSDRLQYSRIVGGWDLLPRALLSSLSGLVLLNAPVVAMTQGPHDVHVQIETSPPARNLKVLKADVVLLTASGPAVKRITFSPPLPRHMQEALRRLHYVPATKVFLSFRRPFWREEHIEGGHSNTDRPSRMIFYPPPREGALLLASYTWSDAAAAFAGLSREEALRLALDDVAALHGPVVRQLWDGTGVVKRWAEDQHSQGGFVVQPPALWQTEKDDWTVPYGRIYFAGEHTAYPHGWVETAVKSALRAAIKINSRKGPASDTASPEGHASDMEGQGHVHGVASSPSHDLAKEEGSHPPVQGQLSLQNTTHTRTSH
Test: IL4I1 Enzymatic Assay (Amplex Red/HRP coupled H2O2 detection)
Settings: 1 nM IL4I1, 1 mM each Phe/Tyr/Trp, four-hour pre-incubation, 120 minutes reaction, top compound concentration of 10000 nM
READOUT_TYPE: EC50 (µM)

See these solved cases before continuing.
# MOLECULE, READOUT_UNIT, EC50
records = [
    ("CC(=O)NCc1ccc(Cc2cc3ccccc3n(C)c2=O)cc1 [Example 151]", "µM", 0.0033),
    ("CC(C)(O)c1ccc2[nH]c(=O)c(Cc3ccccc3)cc2c1 [Example 173]", "µM", 6.84),
    ("Cc1n[nH]c(-c2nnc(Cc3cc4ccccc4[nH]c3=O)o2)c1C [Example 44]", "µM", 0.0077),
    ("O=c1[nH]c2ccccc2cc1Cc1ccc(N2CCNCC2)cc1 [Example 59]", "µM", 0.0236),
    ("O=c1[nH]c2ccccc2cc1Cc1nnc(-c2scnc2Cl)o1 [Example 38]", "µM", 0.0252),
]

A: O=c1[nH]c2cnccc2cc1Cc1ccccc1 [Example 104, 3-benzyl-1,7-naphthyridin-2(1H)-one]
B: O=c1[nH]c2ccccc2cc1Cc1nnc(-c2ccc(C(F)(F)F)cc2)o1 [Example 7]
C: CC(c1nnc(Cc2cc3ccccc3[nH]c2=O)o1)C1CC1 (racemic) [Example 19]
D: CC1(O)CC(c2ccc(Cc3cc4ccccc4[nH]c3=O)cc2)C1 (stereo not drawn) [Example 161]
(Q) Endpoint returns the given molecules ordered by ascending EC50. Give me the labels in the order the question wants.
(A) D, B, C, A
(D: 0.0032 µM, B: 0.0822 µM, C: 0.125 µM, A: 9.18 µM)
